Test system: Plasmodium berghei
Assay: Screen against P. berghei liver stage (PbLuc), transformed with Luciferase, at 10uM
Type: functional, HepG2
Conditions: tested at 10 uM
About 8,600 (12%) of roughly 69,000 compounds showed an effect of 50% or more. The sample as a whole holds a higher share of strong results than the screen did.
readout: INHIBITION

# compound, result
measured = [
    ("O=C(c1ccc(-n2ccnc2)cc1)N1CCCC(n2ccnc2)C1 (configuration not stated)", "2.3%"),
    ("COc1ccccc1CCNC(=O)CC1(Cn2cnnn2)CCCCC1", "48.2%"),
    ("c1cc(C2CN(C3CCCCC3)C2)n[nH]1", "15.92%"),
    ("CN(CCCN1CCCCCC1)C(=O)c1ccccc1NCC(=O)O", "14.9%"),
    ("Cn1ccc(C(=O)N2CCCC(Cc3cnc4ccccc4c3)C2)n1 (configuration not stated)", "-0.371%"),
    ("Cc1cnn(CC2CCCN2c2ncnc3sccc23)c1 (configuration not stated)", "56.1%"),
    ("Cc1noc(CNC2CCCN(Cc3noc(C4CC4)n3)C2)n1 (configuration not stated)", "-52.5%"),
    ("CN(C)S(=O)(=O)N1CC[C@]2(O)CCN(CCc3cccc(F)c3)C[C@@H]2C1", "3.96%"),
    ("COCCn1nc(C(=O)N(C)Cc2cnn(C)c2)ccc1=O", "36.3%"),
    ("COc1nn(C)cc1C(=O)NCC1(O)CCc2ccccc2C1 (configuration not stated)", "36.5%"),
    ("O=C(NC1CC1)c1cc(C(F)(F)F)cc(C(F)(F)F)n1", "-14.3%"),
    ("c1cnn(CC2CCCN2c2ncnc3c2CCC3)c1 (configuration not stated)", "59.7%"),
    ("O=C(c1ccccc1)N1CCCC2(CCN2Cc2cccc(F)c2)C1 (configuration not stated)", "61.1%"),
    ("Cc1cccc(CN2CC3(CCN(S(=O)(=O)C4CC4)CC3)OCC2=O)n1", "7.53%"),
    ("O=C1CC(C(=O)NCCN2CCOC2=O)c2cc(F)ccc2N1 (configuration not stated)", "36.4%"),
    ("COCc1cc(NCCc2ccc(S(N)(=O)=O)cc2)n2nccc2n1", "26.6%"),
    ("COc1ccc(C(=O)N2C[C@@H](c3ccccc3)[C@@H]3NCCCC[C@@H]32)cc1", "15.9%"),
    ("CN(CCc1ccccc1)c1cnn(CC2COCCO2)c(=O)c1 (configuration not stated)", "-42.8%"),
    ("CCc1ccc(NC(=O)N2C[C@@H]3C[C@H](C(=O)N4CCCC4)[C@H](C2)O3)cc1", "45.4%"),
    ("COc1c(C2CCCN2c2ncnc3sccc23)c(C)nn1C (configuration not stated)", "40%"),
    ("Cc1cnn(CC2CCCN2c2ncnc3ccsc23)c1 (configuration not stated)", "47.7%"),
    ("O=C(c1ccccn1)N1C[C@H]2CC[C@@H](C1)N(C(=O)Cc1cccs1)C2", "4.13%"),
    ("Cc1ccc(NC(=O)Nc2c(O)c3ccccc3oc2=O)cc1", "41.6%"),
    ("Cc1cnn(CC2CCCCN2c2ncnc3ccccc23)c1 (configuration not stated)", "-34.6%"),
    ("O=C(CN1CC(c2nc(Cc3ccccc3)no2)C1)NCC1CCCO1 (configuration not stated)", "2.55%"),
    ("COc1cccc([C@H]2CN(C(=O)c3ccccc3)[C@@H]3CCCN[C@H]23)c1", "55.6%"),
    ("CCCc1nnc(NCCc2noc(C3CCCC3)n2)o1", "22.5%"),
]

----------
Tested on: Plasmodium berghei
Test: Screen against P. berghei liver stage (PbLuc), transformed with Luciferase, at 10uM
Type: functional, HepG2
Conditions: tested at 10 uM
Hit rate of the full screen: of about 69,000 compounds, about 8,600 (12%) showed an effect of 50% or more. Many of the other results were omitted from the sample, so strong results are more common in it than they were.
This listing pairs molecules with measured INHIBITION.

# molecule, tested.target, INHIBITION, %
rows = [
    ("Cc1ncc(C)c(N2Cc3cnn(Cc4ccc(F)cc4)c3C2)n1", "Plasmodium berghei", 32.5),
    ("Cc1nc(CN2CCC3(CCCN(Cc4cnn(C)c4)C3)C2=O)cs1 (stereo not drawn)", "Plasmodium berghei", -0.912),
    ("CCC[C@H]1CN(Cc2ccccc2C#N)C[C@@H]1NS(C)(=O)=O", "Plasmodium berghei", 49.3),
]

----------
Tested on: Plasmodium berghei
Test: Screen against P. berghei liver stage (PbLuc), transformed with Luciferase, at 10uM
Format: functional, HepG2
Conditions: tested at 10 uM
In all, about 69,000 compounds went through this assay and about 8,600 (12%) showed an effect of 50% or more. This is one part of a sample in which strong results are shown more often than they occur.

# compound, INHIBITION [%]
measured = [
    ("CCCn1nc2c(cc1=O)CN(Cc1nc(C)c3ccccc3n1)CC2", 34.6),
    ("CC(=O)N1CCC(NC(=O)N2CCN(c3cnccn3)CC2)CC1", 48.2),
    ("Cc1cccc(CS(=O)(=O)CC(O)Cn2cccn2)c1 (stereo not given)", 15.5),
    ("Cc1ccc(-c2nnc(CNC(=O)c3cccnc3)o2)cn1", 30.4),
    ("Cc1nnc(N2CCc3cncnc3C2)c(C#N)c1C", -5.08),
]

----------
Test system: Plasmodium berghei
Assay: Screen against P. berghei liver stage (PbLuc), transformed with Luciferase, at 10uM
Format: functional, HepG2
Details: tested at 10 uM
In all, about 69,000 compounds went through this assay and about 8,600 (12%) showed an effect of 50% or more. This excerpt belongs to a sample that is enriched for strong results.
This listing pairs compounds with measured INHIBITION.
readout: INHIBITION

# compound, readout, result
measured = [
    ("Cc1ccc2c(c1)OC(C)CN2C(=O)CCc1cscn1 (stereo not drawn)", "INHIBITION", "9.04%"),
    ("Cc1nc(C)c(CN2CCOC(CNc3cccnn3)C2)s1 (stereo not drawn)", "INHIBITION", "41.5%"),
    ("O=C(NCc1nncn1-c1ccccc1)C1CCCC1", "INHIBITION", "11.9%"),
    ("CS(=O)(=O)N1CCC(C(=O)NC(Cc2ccsc2)c2ccccn2)CC1 (stereo not drawn)", "INHIBITION", "40.9%"),
    ("C[C@H]1C(=O)NC[C@H]2CN(Cc3ccccc3)C[C@H]21", "INHIBITION", "-9.27%"),
    ("O=C(NCCSc1ccccc1)[C@H]1CNC[C@@H](C(=O)N2CCOCC2)C1", "INHIBITION", "-1.09%"),
    ("Fc1ccc(CN2CCC3(CCN(Cc4nccs4)CC3)C2)cc1", "INHIBITION", "21.7%"),
    ("Cc1csc(C(Cc2ccsc2)NC(=O)Cn2cccnc2=O)n1 (stereo not drawn)", "INHIBITION", "34%"),
    ("COc1ccc(CN(CC2CCCO2)c2nc3c(s2)c(C)nn3C)cc1 (stereo not drawn)", "INHIBITION", "87.1%"),
    ("O=C(c1cnccn1)N1C[C@@H]2OCC(=O)N(CC3CCCCC3)[C@@H]2C1", "INHIBITION", "26.4%"),
    ("COCCNC(=O)CN(C)Cc1ccc(F)cc1Cl", "INHIBITION", "52.2%"),
    ("O=C(Cn1cccnc1=O)NC(Cc1ccsc1)c1ccccn1 (stereo not drawn)", "INHIBITION", "41.5%"),
    ("COCCCNC(=O)CN(C)Cc1ccc(F)cc1Cl", "INHIBITION", "-102%"),
    ("Cc1ccc2c(c1)OC(C)CN2C(=O)CCc1cccnc1 (stereo not drawn)", "INHIBITION", "43.4%"),
    ("Cc1cnc(C(=O)N2C[C@@H]3[C@@H](C2)OCC(=O)N3CC2CCCC2)cn1", "INHIBITION", "-18.5%"),
    ("Cc1cc(CN2CC[C@H]3C[C@H](C(=O)N4CCC(C)CC4)O[C@H]3C2)no1", "INHIBITION", "34.7%"),
    ("Cc1nn(C)c2nc(N(Cc3ccncc3)CC3CCCO3)sc12 (stereo not drawn)", "INHIBITION", "-24%"),
    ("COCC(=O)N1CCCC1c1cccc(C)c1C (stereo not drawn)", "INHIBITION", "17.1%"),
    ("Cc1nn(C)c2nc(N(CCOc3ccccc3)CC3CCCO3)sc12 (stereo not drawn)", "INHIBITION", "85.9%"),
    ("OCC1(O)CCCN(Cc2noc(-c3ccccc3)n2)CC1 (stereo not drawn)", "INHIBITION", "41.2%"),
    ("Cc1cccc(C)c1-n1nnnc1C1(NCc2ccco2)CCCC1", "INHIBITION", "45.4%"),
    ("Cc1nn(C)c2nc(-c3ccccn3)nc(NC[C@@H]3CCCO3)c12", "INHIBITION", "10.4%"),
    ("Cc1cnc(NCC(C)(C)N2CCCCC2)nc1", "INHIBITION", "23.3%"),
    ("Cc1ccc(OCc2nc(CNCC3CN(C)CCO3)cs2)cc1 (stereo not drawn)", "INHIBITION", "-45.6%"),
    ("CO[C@@H]1CC[C@@H](NC(=O)c2ccc(OCCN3CCCC3)cc2)[C@H]1O", "INHIBITION", "34.25%"),
    ("CC(C)CN(c1cn[nH]c1)S(=O)(=O)c1cccc(C#N)c1", "INHIBITION", "10.8%"),
    ("Cc1ncc(C(=O)NC2CCN(CCOc3ccc(Br)cc3)CC2)s1", "INHIBITION", "88.6%"),
    ("Cc1ncc(S(=O)(=O)N(CC(C)C)c2cccc(O)c2)s1", "INHIBITION", "61%"),
    ("Cc1ccc2c(c1)OC(C)CN2C(=O)Cc1ccc(C)nc1 (stereo not drawn)", "INHIBITION", "59.1%"),
    ("O=C1CCC(C(=O)NCc2nncn2-c2ccccc2)CN1 (stereo not drawn)", "INHIBITION", "51%"),
    ("CC(NC(=O)NCc1cccnc1N(C)C)c1ccc(F)cc1 (stereo not drawn)", "INHIBITION", "-12.1%"),
    ("CCc1nnc(CNC(=O)CCC2CCCCN2C)s1 (stereo not drawn)", "INHIBITION", "6.72%"),
    ("Cc1nc(C)n(CC2CN(Cc3cccnc3)Cc3nccn3C2)n1 (stereo not drawn)", "INHIBITION", "25.1%"),
]
